Origin of the recorded values: BindingDB's records for patent US20240148821

- Target entity: GTPase KRas (G12D) and Son of Sevenless Homolog 1 (SOS) (Homo sapiens, UniProt P01116, G12D)
- Sequence (P01116 whole entry G12D): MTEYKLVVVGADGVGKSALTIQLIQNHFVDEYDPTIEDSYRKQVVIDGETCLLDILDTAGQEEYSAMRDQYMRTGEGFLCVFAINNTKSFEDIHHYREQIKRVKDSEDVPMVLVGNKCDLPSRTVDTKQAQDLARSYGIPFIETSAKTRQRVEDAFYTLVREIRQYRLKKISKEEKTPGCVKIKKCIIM
- Sequence (Q07889 whole entry, further chain): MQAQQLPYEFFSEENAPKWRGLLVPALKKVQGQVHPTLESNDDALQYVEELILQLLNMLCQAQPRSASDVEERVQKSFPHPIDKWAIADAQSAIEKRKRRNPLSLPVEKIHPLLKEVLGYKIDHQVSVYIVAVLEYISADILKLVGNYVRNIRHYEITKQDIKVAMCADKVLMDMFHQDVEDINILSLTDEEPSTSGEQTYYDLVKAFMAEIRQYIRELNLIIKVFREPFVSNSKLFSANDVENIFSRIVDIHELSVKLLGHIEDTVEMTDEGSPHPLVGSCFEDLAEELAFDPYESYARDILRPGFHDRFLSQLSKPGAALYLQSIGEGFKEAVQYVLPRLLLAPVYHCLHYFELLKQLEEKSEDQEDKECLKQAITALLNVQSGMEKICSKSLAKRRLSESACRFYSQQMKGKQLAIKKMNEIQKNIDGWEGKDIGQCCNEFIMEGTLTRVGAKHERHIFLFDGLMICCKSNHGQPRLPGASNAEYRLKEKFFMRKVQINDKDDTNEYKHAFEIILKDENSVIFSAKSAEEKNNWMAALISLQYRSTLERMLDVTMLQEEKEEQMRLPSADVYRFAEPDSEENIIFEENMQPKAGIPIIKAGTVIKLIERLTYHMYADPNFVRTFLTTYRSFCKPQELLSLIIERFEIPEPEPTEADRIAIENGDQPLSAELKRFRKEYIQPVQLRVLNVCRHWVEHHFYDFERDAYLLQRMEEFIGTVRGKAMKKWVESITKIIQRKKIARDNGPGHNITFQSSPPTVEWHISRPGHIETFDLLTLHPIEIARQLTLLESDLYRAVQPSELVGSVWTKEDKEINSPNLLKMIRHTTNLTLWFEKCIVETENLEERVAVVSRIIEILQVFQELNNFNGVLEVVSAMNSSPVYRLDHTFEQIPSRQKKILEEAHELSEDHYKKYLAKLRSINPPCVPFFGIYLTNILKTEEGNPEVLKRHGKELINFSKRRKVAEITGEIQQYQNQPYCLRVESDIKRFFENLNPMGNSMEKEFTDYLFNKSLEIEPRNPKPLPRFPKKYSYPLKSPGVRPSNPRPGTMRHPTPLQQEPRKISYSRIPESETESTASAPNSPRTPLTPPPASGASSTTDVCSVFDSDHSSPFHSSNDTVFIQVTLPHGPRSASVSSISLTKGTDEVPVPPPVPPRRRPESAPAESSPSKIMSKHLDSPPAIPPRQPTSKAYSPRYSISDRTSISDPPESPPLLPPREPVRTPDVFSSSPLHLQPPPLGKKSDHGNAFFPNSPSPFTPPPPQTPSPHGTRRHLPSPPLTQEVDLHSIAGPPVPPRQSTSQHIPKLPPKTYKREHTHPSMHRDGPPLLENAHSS
- Test description: AlphaScreen Assay
Numbered stars: 1 amine (or outer) side, 2 acyl side, 3 side chain; on linkers, the order of the positions; unused ones are H or OH. Bridge positions count the residues as written; N and C are the ends. Square brackets hold non-standard residues; d marks the D form. Peptide text beside a SMILES is read from it. * marks the point of attachment. hPhe(3-Cl-4-CF3) = N[C@@H](CCc1ccc(C(F)(F)F)c(Cl)c1)C(=O)O; hPhe(3-F,4-CF3) = N[C@@H](CCc1ccc(C(F)(F)F)c(F)c1)C(=O)O; X134 = CN([C@@H](Cc1ccc(C#N)nc1)C(=O)[*:2])[*:1]; X101 = CN([C@@H](CCc1cscn1)C(=O)[*:2])[*:1]; NMeCha = CN[C@@H](CC1CCCCC1)C(=O)O; cisHyp = O=C(O)[C@@H]1C[C@H](O)CN1; Hyp = O=C(O)[C@@H]1C[C@@H](O)CN1; NMeChg = CN[C@H](C(=O)O)C1CCCCC1; NMeD = CN[C@@H](CC(=O)O)C(=O)O; NMeL = CN[C@@H](CC(C)C)C(=O)O; Piperidide = C1CCN(*)CC1; Ac5c = NC1(C(=O)O)CCCC1; X106 = Clc1cccc(C*)c1; X87 = Clc1ccccc1C*; Sar = CNCC(=O)O
Endpoint: IC50 (nM)
Numbers only, in nM.

Please review the following examples before continuing.
{"Compound": "CC[C@H](C)[C@@H]1NC(=O)[C@H](CC(C)C)N(C)C(=O)C[C@@H](C(=O)N2CCCCC2)N(C)C(=O)[C@H](C2CCCCC2)N(C)C(=O)C2(CCCC2)NC(=O)[C@H](Cc2ccc(C#N)nc2)N(C)C(=O)[C@H](CCc2ccc(C(F)(F)F)c(Cl)c2)NC(=O)CN(C)C(=O)[C@H](CC2CCCCC2)N(C)C(=O)CN(C)C(=O)CN(C)C1=O [US20240148821, Compound 2169] ([NMeL]I[Sar][Sar][NMeCha][Sar][hPhe(3-Cl-4-CF3)][X134][Ac5c][NMeChg][NMeD]-Piperidide; lactam N-11)", "IC50, nM": 6.1}
{"Compound": "CC[C@H](C)[C@@H]1NC(=O)[C@H](CC(C)C)N(C)C(=O)C[C@@H](C(=O)N2CCCCC2)N(C)C(=O)[C@H](C2CCCCC2)N(C)C(=O)C2(CCCC2)NC(=O)[C@H](CCc2cscn2)N(C)C(=O)[C@H](CCc2ccc(C(F)(F)F)c(Cl)c2)NC(=O)CN(C)C(=O)[C@H](CC2CCCCC2)N(C)C(=O)CN(C)C(=O)CN(C)C1=O [US20240148821, Compound 500] ([NMeL]I[Sar][Sar][NMeCha][Sar][hPhe(3-Cl-4-CF3)][X101][Ac5c][NMeChg][NMeD]-Piperidide; lactam N-11)", "IC50, nM": 4.8}
{"Compound": "CC[C@H](C)[C@@H]1NC(=O)[C@H](CC(C)C)N(C)C(=O)C[C@@H](C(=O)N2CCCCC2)N(C)C(=O)[C@H](CC(C)C)N(C)C(=O)C2(CCCC2)NC(=O)[C@@H]2C[C@@H](OCc3cccc(Cl)c3)CN2C(=O)[C@H](CCc2ccc(C(F)(F)F)c(F)c2)NC(=O)CN(C)C(=O)[C@H](CC2CCCCC2)N(C)C(=O)CN(C)C(=O)CN(C)C1=O [US20240148821, Compound 2134] ([NMeL]I[Sar][Sar][NMeCha][Sar][hPhe(3-F,4-CF3)][Hyp](X106)[Ac5c][NMeL][NMeD]-Piperidide; lactam N-11)", "IC50, nM": 9.8}

As a next step, examine the compound that follows.
Read off the recorded IC50 for CC[C@H](C)[C@@H]1NC(=O)[C@H](CC(C)C)N(C)C(=O)C[C@@H](C(=O)N2CCCCC2)N(C)C(=O)[C@H](CC(C)C)N(C)C(=O)C2(CCCC2)NC(=O)[C@@H]2C[C@H](OCc3ccccc3Cl)CN2C(=O)[C@H](CCc2ccc(C(F)(F)F)c(F)c2)NC(=O)CN(C)C(=O)[C@H](CC2CCCCC2)N(C)C(=O)CN(C)C(=O)CN(C)C1=O [US20240148821, Compound 2132] ([NMeL]I[Sar][Sar][NMeCha][Sar][hPhe(3-F,4-CF3)][cisHyp](X87)[Ac5c][NMeL][NMeD]-Piperidide; lactam N-11) 91
